# Test system: MCF7 breast
# ASSAY TEXT: NCI-60 one-dose screen, 48 h
# EXPERIMENTAL CONDITIONS: 10 µM unless noted
Compounds without any hit were thinned out: in the full panel of roughly 83,000, 20% have a hit. Active and inactive are the calls of the source. Rule for the calls: active = growth percent below 10; inactive = the rest.
Labels: T (active), F (inactive)

| COMPOUND | ASSAYED TARGET | GROUP LABEL |
| --- | --- | --- |
| CCN1C(=O)N(CC)C2Nn3c(s/c(=C4\C(=O)Nc5ccccc54)c3=O)=NC21 (stereo unspecified) | MCF7 breast | F |
| Cc1c(C(=O)NCCCc2ccccc2)sc2ncc(-c3ccc(Br)cc3)n12 | MCF7 breast | F |
| COc1cc(Nc2nc(NCCN)nc3cc[nH]c(=O)c23)cc(OC)c1 | MCF7 breast | F |
| COc1ccc(C(=O)COC(=O)[C@H](C[Se][Se]C[C@H](NC(=O)c2ccc(Br)cc2F)C(=O)OCC(=O)c2ccc(OC)cc2)NC(=O)c2ccc(Br)cc2F)cc1 | MCF7 breast | T |
| COc1cc(C(=O)c2cnc(-c3cccc4[nH]ccc34)[nH]2)cc(OC)c1OC | MCF7 breast | F |
| CCN(CC)CCNC(=O)c1cn2ncnc(Oc3ccc(NC(=O)Nc4ccc(Cl)c(C(F)(F)F)c4)cc3)c2c1C | MCF7 breast | T |
| O=C(O)CCC(=O)Nc1nnc(-c2ccccc2)s1 | MCF7 breast | F |
| Cc1cccc2c3c(sc12)C(c1ccc(Cl)cc1)C(C#N)=C(N)O3 (stereo unspecified) | MCF7 breast | T |
| COc1ccc(C2=Nn3c(nnc3-c3cc(Cl)cc(Cl)c3Cl)SC2)cc1 | MCF7 breast | T |
| COc1ccc(OC)c(/C=C/C(=O)N/N=C/c2ccccc2)c1 | MCF7 breast | F |
| c1cc(NCCc2ccncc2)nc(-n2cnc3ccccc32)c1 | MCF7 breast | F |
| CCOC(=O)C1=C(N)Oc2c(sc3c(CC)cccc23)C1c1ccc(F)cc1 (stereo unspecified) | MCF7 breast | F |
| COc1ccc(-c2cnc3ccccc3n2)cc1 | MCF7 breast | F |
| COc1cc2cc(Oc3ccc(NC(=O)Nc4ccc(Cl)c(Cl)c4)cc3)c(C)nc2cc1OCCN1CCOCC1 | MCF7 breast | F |
| CCOC(=O)Cn1c(=O)c2c(c3ccccc3n2C)n2nnc(-c3ccccc3)c12 | MCF7 breast | F |
| NC(=O)C1(Nc2ccc(Br)cc2)CCCC1 | MCF7 breast | F |
| CC(=O)CC(c1cccs1)c1c(-c2ccccc2)[nH]c2ccccc12 (stereo unspecified) | MCF7 breast | F |
| COc1nc2ccccc2cc1-c1nc2c(cnn2-c2ccccc2)c(=O)[nH]1 | MCF7 breast | F |
| Brc1ccc2[nH]cc(-c3nc(-c4c[nH]c5ccncc45)cs3)c2c1 | MCF7 breast | T |
| C#Cc1cccc(NC(=O)c2ccc(NC(=O)C=C)cc2)c1 | MCF7 breast | F |
| Cc1nc(S(=O)(=O)c2ccccc2)c(S(=O)(=O)Cc2ccc([N+](=O)[O-])cc2)o1 | MCF7 breast | F |
| c1cc2nc(-c3cn[nH]c3)c3c(c2cc1-c1cn[nH]c1)C1CCC3C1 (stereo unspecified) | MCF7 breast | F |
| Cc1nc2nc(SCC(=O)O)[nH]c2c(=O)[nH]1 | MCF7 breast | F |
| O=c1c2cc(F)cc(Cl)c2sc2c(NCCCNCCO)nc3ccccc3c12 | MCF7 breast | F |
| CCCCOc1nc2c(C)cccc2cc1-c1cc(-c2ccc(Cl)cc2)nc(-c2ccc(Cl)cc2)c1 | MCF7 breast | F |
| C=C1CC[C@@]2(C#N)[C@H]3[C@H](CC[C@@H]2C)[C@@H](C)C[C@@H](CC(C)(C)C#N)[C@H]13 | MCF7 breast | F |
| CCOC(=O)c1c2c(n(-c3ccc(C#N)cc3)c1-c1ccccc1)C=CCC2 | MCF7 breast | F |
| CN1CCN(c2ccc(-c3ccc4ncc(C#N)c(Nc5ccc(F)c(Cl)c5)c4c3)cc2)CC1 | MCF7 breast | F |
| Oc1ccc(CCl)c2cccnc12 | MCF7 breast | T |
| O=C(O)CCC/C=C\C[C@H]1C=CC(=O)/C1=C/C[C@@H](O)CCc1cccc(C(F)(F)F)c1 | MCF7 breast | F |
| CCOC(=O)Nc1ccc(-c2nc(-c3cccc(OCCN4CCOCC4)c3)c(-c3ccnc(Br)c3)[nH]2)cc1 | MCF7 breast | F |
| COc1ccc(C2C(N)=NNC2c2cccc(O)c2)cc1 (stereo unspecified) | MCF7 breast | F |
| CN1C(=C2C(=O)OC(C)(C)OC2=O)CCC1C(=O)NCc1ccc(Cl)cc1Cl (stereo unspecified) | MCF7 breast | F |
| COc1cc2cc(Oc3ccc(NC(=O)Nc4ccc(Cl)c(C(F)(F)F)c4)cc3)c(C)nc2cc1OCCN1CCOCC1 | MCF7 breast | T |
| O=C(/C=C/c1sc(Cl)nc1Cl)c1ccccc1 | MCF7 breast | F |
| O=C(Nc1c2ccccc2nc2ccccc12)c1ccccc1CN1C(=O)c2ccccc2C1=O | MCF7 breast | F |
| C[C@H](C(=O)Nc1ccc(S(N)(=O)=O)cc1)S(=O)(=O)c1ccccc1 | MCF7 breast | F |
| COc1cc(CNS(=O)(=O)c2ccc(C)cc2)ccc1OCc1cn(-c2ccccc2)nn1 | MCF7 breast | F |
| CCOC(=O)c1cn2ncnc(Oc3ccc(NC(=O)NCCN4CCN(C)CC4)c(Cl)c3)c2c1C | MCF7 breast | F |
| Cc1cc2nc3cc(C)c(N)cc3[n+](-c3ccccc3)c2cc1N | MCF7 breast | F |
| O=CN(SSN(C=O)C1CCCCC1)C1CCCCC1 | MCF7 breast | F |

---

# Test system: OVCAR-4 ovarian
# ASSAY TEXT: NCI-60 one-dose screen, 48 h
# EXPERIMENTAL CONDITIONS: 10 µM unless noted
The panel holds about 83,000 compounds, 20% with a hit somewhere; the sample as a whole holds those more often. Activity calls are given as the source filed them. The calls were made as follows: active = growth percent below 10; inactive = the rest.
Outcome codes: YES (active), NO (inactive)

| MOLECULE | GROUP LABEL |
| --- | --- |
| CCOC(=O)C1=C(N)Oc2c(sc3c(C)cccc23)C1c1ccc(Cl)cc1 (stereo not given) | NO |
| COc1cccc2c(=O)c3c(sc12)c(NCCCN)nc1ccccc13 | NO |
| CCOC(=O)c1sc2ncc(-c3ccc(C)cc3)n2c1C | NO |
| Cc1nc(S(=O)(=O)c2ccccc2)c(S(=O)(=O)Cc2ccc([N+](=O)[O-])cc2)o1 | NO |
| NCCCNc1nc2ccccc2c2c(=O)c3cc(OC(F)(F)F)ccc3sc12 | YES |
| COc1ccc(/C=C2\Oc3cc(OCCN4CCC(Cc5ccccc5)CC4)ccc3C2=O)cc1OC | NO |
| CC(=O)CC(c1ccccc1)c1c(C)[nH]c2ccccc12 (stereo not given) | NO |
| COc1cccc(-c2nc(-c3ccc(NC(=O)C(C)C)cc3)[nH]c2-c2ccnc(Br)c2)c1 | NO |
| Cn1cc(-c2cc3ncnc(Nc4ccc(CC(=O)Nc5cc(C(C)(C)C)on5)cc4)c3s2)cn1 | NO |
| CNC(=O)c1[nH]cc(-c2ccccc2)c1-c1cc(OC)c2c(c1OC)OCO2 | NO |
| O=C(O)c1cn(C2CC2)c2cc(N3CCN(C(=O)Nc4nc(-c5ccccc5)cs4)CC3)c(F)cc2c1=O | NO |
| Cc1cc(O)c(C2=NN(c3ccc(S(N)(=O)=O)cc3)C(/C=C/c3ccccc3)C2)cc1Cl (stereo not given) | NO |
| COC(=O)c1ccc2[nH]c(O)c(C(=Nc3ccc(N(C)C(=O)CN4CCN(C)CC4)cc3)c3ccccc3)c2c1 | NO |
| C=C1C(=O)O[C@H]2[C@H]1CC/C(COC(=O)CCC(=O)NCCOCCOCC(=O)Nc1ccc(OC)c(C(N)=O)c1O)=C\CC[C@@]1(C)O[C@@H]21 | NO |
| O=C(Cc1ccc2c(c1)OCCO2)Nc1nc2ccc(F)cc2s1 | NO |
| CCc1cccc2c1S/C(=C/c1ccc(OC)cc1)C2=O | NO |
| Nc1nc(-c2cccc3ccccc23)cc2ccccc12 | NO |
| C#Cc1cccc(NC(=O)c2ccc(NC(=O)C=C)cc2)c1 | NO |
| CNCCCNc1nc2ccccc2c2c(=O)c3cc(F)ccc3sc12 | NO |
| O=C(N/N=C/[C@H](O)[C@@H](O)[C@@H](O)[C@H](O)CO)c1ccc(NC(=O)c2cccnc2)cc1 | NO |

---

# System: MALME-3M melanoma
# ASSAY TEXT: NCI-60 one-dose screen, 48 h
# EXPERIMENTAL CONDITIONS: 10 µM unless noted
# Description: Cells are grown in 96 well plates and exposed to the test compound for 48 hours. Compounds are tested at a single concentration, which is 10^-5 M for most compounds. The reported endpoint is percent growth (GI% or GIPRCNT), where numbers from 0 - 100% represent growth inhibition, and numbers from -100% - 0 represent cell death. For example, a value of 40 represents 60% growth inhibition. A value of 0 means no net growth occurred over the course of the experiment. […]
This is part of a sample that, as a whole, favours compounds with a hit. Of some 83,000 tested, about 20% had one in any assay. Active and inactive are the calls of the source. How the source made its calls: active means growth percent below 10; inactive means the rest.
Outcomes: active, inactive

| COMPOUND | GROUP LABEL |
| --- | --- |
| O=C(O)CCC(=O)Nc1nnc(-c2ccccc2)s1 | inactive |
| COc1ccc2c(c1)c(-c1ccc(-c3cn(C)c4ccc(OC)cc34)o1)cn2C | inactive |
| COc1cc(C(=O)/C=C/c2ccc(OCCCCCC[P+](c3ccccc3)(c3ccccc3)c3ccccc3)cc2)cc(OC)c1OC | active |
| Cc1ncc(C(=O)Nc2ccc(CN3CCN(C)CC3)c(C(F)(F)F)c2)cc1C#Cc1ccc(N)nc1 | active |
| CCCCCCCCCCCCCCCCCC1OCC(COC(=O)O[C@]2(CC)C(=O)OCc3c2cc2n(c3=O)Cc3cc4ccccc4nc3-2)O1 (stereo not given in full) | inactive |
